System: CASKI
measurementNotes: Primary qHTS to identify gynecologic anti-cancer compounds using libraries of approved drugs and bioactive compounds (AID 1345084); further: nearly all actives have a fitted effect of over 55% in size; further: potency means the concentration at half of the fitted maximal effect
conditionLabel: Gynecologic cancer cell panel viability, ATPlite luminescence, 48 h; series mostly up to 57.5 µM
Records with an inconclusive call do not appear. Active and inactive are the calls of the source. The call rests on the fitted dose curve; in most records, active means well fitted cell-killing curve with a large enough effect; inconclusive means small, poorly fitted or top-dose-only effect, or effect the other way; inactive means flat fitted curve, though single readings scatter.
observedProperty: Potency

In [3]: df
Out[3]:
                                   compound  observedproperty      valuereported
0  CN(C)C/C=C/C(=O)Nc1ccc(C(=O)Nc2cccc(Nc3ncc(Cl)c(-c4c[nH]c5ccccc45)n3)c2)cc1           Potency  0.794 µM (active)
1  CC(=O)c1cnc2ccc(-c3cc(Cl)c(O)c(Cl)c3)nc2c1NC1CCC(CN(C)C)CC1 (stereo not given)           Potency      1 µM (active)
2  COc1ccc(C[C@H](N)C(=O)N[C@H]2[C@@H](O)[C@H](n3cnc4c(N(C)C)ncnc43)O[C@@H]2CO)cc1           Potency   1.58 µM (active)
3  Cc1nc2c(-c3cnc(N)nc3)nc(N3CCOCC3)nc2n1C(C)C           Potency   1.26 µM (active)

Attention now turns to another entry.
Problem: May I ask what Potency has been recorded for COc1cc2c(Nc3ccc(Cl)c(Cl)c3F)ncnc2cc1OCC1C[C@@H]2CN(C)C[C@@H]2C1 (stereo not given in full) ?
Solution: 11.2 µM (active)

====

System: PA-1
measurementNotes: Primary qHTS to identify gynecologic anti-cancer compounds using libraries of approved drugs and bioactive compounds (AID 1345084); further: nearly all actives have a fitted effect of over 55% in size; on activity change, negative = cytotoxicity: on the % scale 0 is the no-effect control and ±100 the full control effect
conditionLabel: Gynecologic cancer cell panel viability, ATPlite luminescence, 48 h; series mostly up to 57.5 µM
Inconclusive results are not listed. The source made the active and inactive calls. Calls come from the whole dose curve; as a rule, active = well fitted cell-killing curve with a large enough effect; inconclusive = small, poorly fitted or top-dose-only effect, or effect the other way; inactive = flat fitted curve, though single readings scatter.
observedProperty: activity change, negative = cytotoxicity

compound	subjectOfTest	activity change, negative = cytotoxicity
COC(=O)[C@]12C(=O)C(C)=C(O)[C@@]1(C)C(C)=CC1[C@@]34CC[C@@H](OC(C)=O)C(C)(C)C3[C@H](C[C@]12C)OC4=O (stereo partly drawn)	PA-1	inactive
CC1(C)CC[C@]2(C(=O)O[C@@H]3O[C@H](CO)[C@@H](O)[C@H](O)[C@H]3O)CC[C@]3(C)C(=CCC4[C@@]5(C)C[C@@H](O)[C@H](O)C(CO)(CO)C5CC[C@]43C)C2[C@@H]1O (stereo partly drawn)	PA-1	inactive
CC1=CC(=O)C2C(C)(C)CCCC2(C)C12CCC1(COC(=O)C1)O2 (stereo not drawn)	PA-1	inactive
CC1(C)CC2C3=CCC4C5(C)CCC(OC6OC(C(=O)O)C(O)C(O)C6OC6OC(CO)C(O)C(O)C6OC6OC(CO)C(O)C(O)C6O)C(C)(CO)C5CCC4(C)C3(C)CCC2(C)C(OC2OCC(O)C(OC3OC(CO)C(O)C(O)C3O)C2O)C1O (stereo not drawn)	PA-1	5.88% [at 6.55 µM] (inactive)
CCOC(=O)[C@H](CCc1ccccc1)CC1(C(=O)N[C@H]2CCc3ccccc3N(CC(=O)O)C2=O)CCCC1	PA-1	inactive

Problem: Could you share which activity change, negative = cytotoxicity value was measured for C[C@@H]1O[C@@H](O[C@H]2[C@H](O)[C@@H](O)[C@H](OC[C@H]3O[C@@H](OC(=O)[C@]45CCC(C)(C)C[C@H]4C4=CCC6[C@@]7(C)C[C@H](O)[C@H](O[C@@H]8O[C@H](CO)[C@@H](O)[C@H](O)[C@H]8O)[C@@](C)(C(=O)O)C7CC[C@@]6(C)[C@]4(C)CC5)[C@H](O[C@@H]4O[C@H](CO)[C@@H](O)[C@H](O)[C@H]4O)[C@@H](O)[C@@H]3O)O[C@@H]2CO)[C@H](O)[C@H](O)[C@H]1O (stereo partly drawn) ?
Solution: 15.2% [at 6.55 µM] (inactive)

Problem: Also check CC1(C)O[C@@]2(C)CC[C@@H]1C[C@@H]2OC1OC(CO)C(O)C(O)C1O (stereo partly drawn)
Solution: inactive

Problem: How about this compound: CC(C)(O)CNc1nc(Nc2ccnc(C(F)(F)F)c2)nc(-c2cccc(C(F)(F)F)n2)n1
Solution: inactive

Problem: Further, for CC1(C)C(O)CCC2(C)C1C(O)C=C1COC(=O)C12O (stereo not drawn) ?
Solution: inactive
